Taken from patent US20190226949A1.

- Assay Details: Photophysical measurements (absorption, emission, lifetime, quantum yield) in diluted solutions
- Type: physicochemical
- Condition Context: DCM, deaerated, 298K
Measurement Label: τdeaer, excited state lifetime (relative weight in parentheses) (ns)
Numeric only. Scale: ns

Please review the following examples before continuing.
# Molecule, Measured Value
rows = [
    ("N#Cc1ccc2[n+](c1)[Ir]13([c]4cc(F)cc(F)c4-c4cccc[n+]41)([c]1cc(F)cc(F)c1-c1cccc[n+]13)[n]1nnnc1-2 [[Ir(F2ppy)2(TzPyCN)]]", 697),
    ("C[n+]1nc2[n](n1)[Ir]13([c]4cc(F)cc(F)c4-c4cccc[n+]41)([c]1cc(F)cc(F)c1-c1cccc[n+]13)[n+]1cc(C#N)ccc1-2 [[Ir(F2ppy)2(MeTzPyCN)]^+]", 551),
    ("c1cc[c]2c(c1)-c1cccc[n+]1[Ir]213([c]2ccccc2-c2cccc[n+]21)[n]1nnnc1-c1ccc2ccccc2[n+]13 [[Ir(ppy)2(TzQn)]]", 831),
]

Consider the record given below.
Value lookup for τdeaer, excited state lifetime (relative weight in parentheses); key = N#Cc1ccc2[n+](c1)[Ir]13([c]4ccccc4-c4cccc[n+]41)([c]1ccccc1-c1cccc[n+]13)[n]1nnnc1-2 [[Ir(ppy)2(TzPyCN)]]
529

###

- Assay Details: Photophysical measurements (absorption, emission, lifetime, quantum yield) in diluted solutions
- Type: physicochemical
- Condition Context: H2O with 0.1% DMSO, aerated; versus Ru(bpy)3^2+ in water
Listing of recorded Φ, quantum yield by entry.
Form: value (number only, do not type unit).

Please review the following examples before continuing.
# Molecule, Φ, quantum yield
measured = [
    ("N#Cc1ccc2[n+](c1)[Ir]13([c]4ccccc4-c4cccc[n+]41)([c]1ccccc1-c1cccc[n+]13)[n]1nnnc1-2 [[Ir(ppy)2(TzPyCN)]]", 0.047),
    ("N#Cc1ccc(-c2ccc3[n+](c2)[Ir]24([c]5ccccc5-c5cccc[n+]52)([c]2ccccc2-c2cccc[n+]24)[n]2nnnc2-3)cc1 [[Ir(ppy)2(TzPyPhCN)]]", 0.055),
    ("c1cc[c]2c(c1)-c1cccc[n+]1[Ir]213([c]2ccccc2-c2cccc[n+]21)[n]1nnnc1-c1c2ccccc2cc[n+]13 [[Ir(ppy)2(TziQn)]]", 0.018),
    ("C[n+]1nc2[n](n1)[Ir]13([c]4ccccc4-c4cccc[n+]41)([c]1ccccc1-c1cccc[n+]13)[n+]1ccc3ccccc3c1-2 [[Ir(ppy)2(MeTziQn)]^+]", 0.004),
    ("C[n+]1nc2[n](n1)[Ir]13([c]4ccccc4-c4cccc[n+]41)([c]1ccccc1-c1cccc[n+]13)[n+]1cc(-c3ccc(C#N)cc3)ccc1-2 [[Ir(ppy)2(MeTzPyPhCN)]^+]", 0.005),
]

Value lookup for Φ, quantum yield; key = N#Cc1ccc2[n+](c1)[Ir]13([c]4cc(F)cc(F)c4-c4cccc[n+]41)([c]1cc(F)cc(F)c1-c1cccc[n+]13)[n]1nnnc1-2 [[Ir(F2ppy)2(TzPyCN)]]
0.057

Value lookup for Φ, quantum yield; key = C[n+]1nc2[n](n1)[Ir]13([c]4ccccc4-c4cccc[n+]41)([c]1ccccc1-c1cccc[n+]13)[n+]1c-2ccc2ccccc21 [[Ir(ppy)2(MeTzQn)]^+]
0.004

Value lookup for Φ, quantum yield; key = C[n+]1nc2[n](n1)[Ir]13([c]4cc(F)cc(F)c4-c4cccc[n+]41)([c]1cc(F)cc(F)c1-c1cccc[n+]13)[n+]1cc(C#N)ccc1-2 [[Ir(F2ppy)2(MeTzPyCN)]^+]
0.005

Value lookup for Φ, quantum yield; key = c1cc[c]2c(c1)-c1cccc[n+]1[Ir]213([c]2ccccc2-c2cccc[n+]21)[n]1nnnc1-c1ccc2ccccc2[n+]13 [[Ir(ppy)2(TzQn)]]
0.039

###

- Assay Details: Lipophilicity by shake-flask method (7.4-buffered PBS / n-octanol)
- Format: physicochemical
- Condition Context: pH 7.4; 7.4-buffered PBS solution and n-octanol; read-out: logD7.4, distribution coefficient
Listing of recorded logD by entry.
Form: value (number only, do not type unit).

Please review the following examples before continuing.
# Compound, Measurement Label, Measured Value
data = [
    ("C[n+]1nc2[n](n1)[Ir]13([c]4cc(F)cc(F)c4-c4cccc[n+]41)([c]1cc(F)cc(F)c1-c1cccc[n+]13)[n+]1cc(C#N)ccc1-2 [[Ir(F2ppy)2(MeTzPyCN)]^+]", "logD", 1.86),
    ("C[n+]1nc2[n](n1)[Ir]13([c]4ccccc4-c4cccc[n+]41)([c]1ccccc1-c1cccc[n+]13)[n+]1ccc3ccccc3c1-2 [[Ir(ppy)2(MeTziQn)]^+]", "logD", 1.49),
    ("C[n+]1nc2[n](n1)[Ir]13([c]4ccccc4-c4cccc[n+]41)([c]1ccccc1-c1cccc[n+]13)[n+]1cc(-c3ccc(C#N)cc3)ccc1-2 [[Ir(ppy)2(MeTzPyPhCN)]^+]", "logD", 1.87),
]

Consider the record given below.
Value lookup for logD; key = C[n+]1nc2[n](n1)[Ir]13([c]4ccccc4-c4cccc[n+]41)([c]1ccccc1-c1cccc[n+]13)[n+]1c-2ccc2ccccc21 [[Ir(ppy)2(MeTzQn)]^+]
1.68

###

- Assay Details: Photophysical measurements (absorption, emission, lifetime, quantum yield) in diluted solutions
- Type: physicochemical
- Condition Context: DCM; calculated as [φ/τ] from deaerated solutions
Measurement Label: kr

Please review the following examples before continuing.
# Compound, kr
measured = [
    ("N#Cc1ccc2[n+](c1)[Ir]13([c]4ccccc4-c4cccc[n+]41)([c]1ccccc1-c1cccc[n+]13)[n]1nnnc1-2 [[Ir(ppy)2(TzPyCN)]]", "7.505 10^5s^−1"),
    ("C[n+]1nc2[n](n1)[Ir]13([c]4ccccc4-c4cccc[n+]41)([c]1ccccc1-c1cccc[n+]13)[n+]1ccc3ccccc3c1-2 [[Ir(ppy)2(MeTziQn)]^+]", "1.299 10^5s^−1"),
]

Consider the record given below.
Value lookup for kr; key = C[n+]1nc2[n](n1)[Ir]13([c]4cc(F)cc(F)c4-c4cccc[n+]41)([c]1cc(F)cc(F)c1-c1cccc[n+]13)[n+]1cc(C#N)ccc1-2 [[Ir(F2ppy)2(MeTzPyCN)]^+]
2.142 10^5s^−1

###

Listing of recorded Emission λem by entry.
- Assay Details: Photophysical measurements (absorption, emission, lifetime, quantum yield) in diluted solutions
- Assay type: physicochemical
- Condition Context: DCM, 298K, 10^−5 M
Numeric only. Scale: nm

# Compound, Emission λem / nm
data = [
    ("C[n+]1nc2[n](n1)[Ir]13([c]4cc(F)cc(F)c4-c4cccc[n+]41)([c]1cc(F)cc(F)c1-c1cccc[n+]13)[n+]1cc(C#N)ccc1-2 [[Ir(F2ppy)2(MeTzPyCN)]^+]", 600),
    ("C[n+]1nc2[n](n1)[Ir]13([c]4ccccc4-c4cccc[n+]41)([c]1ccccc1-c1cccc[n+]13)[n+]1ccc3ccccc3c1-2 [[Ir(ppy)2(MeTziQn)]^+]", 640),
    ("N#Cc1ccc2[n+](c1)[Ir]13([c]4ccccc4-c4cccc[n+]41)([c]1ccccc1-c1cccc[n+]13)[n]1nnnc1-2 [[Ir(ppy)2(TzPyCN)]]", 618),
    ("C[n+]1nc2[n](n1)[Ir]13([c]4ccccc4-c4cccc[n+]41)([c]1ccccc1-c1cccc[n+]13)[n+]1c-2ccc2ccccc21 [[Ir(ppy)2(MeTzQn)]^+]", 635),
    ("N#Cc1ccc2[n+](c1)[Ir]13([c]4cc(F)cc(F)c4-c4cccc[n+]41)([c]1cc(F)cc(F)c1-c1cccc[n+]13)[n]1nnnc1-2 [[Ir(F2ppy)2(TzPyCN)]]", 542),
]

Consider the record given below.
Value lookup for Emission λem; key = N#Cc1ccc(-c2ccc3[n+](c2)[Ir]24([c]5ccccc5-c5cccc[n+]52)([c]2ccccc2-c2cccc[n+]24)[n]2nnnc2-3)cc1 [[Ir(ppy)2(TzPyPhCN)]]
560

###

- Assay Details: Photophysical measurements (absorption, emission, lifetime, quantum yield) in diluted solutions
- Format: physicochemical
- Condition Context: DCM; calculated as [(1 − φ)/τ] from deaerated solutions
- Procedure: A summary of the photophysical data for the complexes as diluted solutions (10^−5 M) in dichloromethane, water, PBS, lysosomal fluid solution, and ethyl laurate is reported in Table 1. […] In general, the photophysical characteristics were measured in aerated solutions to take into account the presence of oxygen in live cells. […] Absorption spectra were recorded at room temperature using a Cary 4000 UV/Vis spectrometer. […]
Measurement Label: knr

Please review the following examples before continuing.
# Molecule, knr
measured = [
    ("C[n+]1nc2[n](n1)[Ir]13([c]4ccccc4-c4cccc[n+]41)([c]1ccccc1-c1cccc[n+]13)[n+]1c-2ccc2ccccc21 [[Ir(ppy)2(MeTzQn)]^+]", "1.753 10^6s^−1"),
    ("C[n+]1nc2[n](n1)[Ir]13([c]4ccccc4-c4cccc[n+]41)([c]1ccccc1-c1cccc[n+]13)[n+]1ccc3ccccc3c1-2 [[Ir(ppy)2(MeTziQn)]^+]", "1.932 10^6s^−1"),
]

Value lookup for knr; key = c1cc[c]2c(c1)-c1cccc[n+]1[Ir]213([c]2ccccc2-c2cccc[n+]21)[n]1nnnc1-c1ccc2ccccc2[n+]13 [[Ir(ppy)2(TzQn)]]
1.125 10^6s^−1

Value lookup for knr; key = N#Cc1ccc(-c2ccc3[n+](c2)[Ir]24([c]5ccccc5-c5cccc[n+]52)([c]2ccccc2-c2cccc[n+]24)[n]2nnnc2-3)cc1 [[Ir(ppy)2(TzPyPhCN)]]
0.967 10^6s^−1

Value lookup for knr; key = C[n+]1nc2[n](n1)[Ir]13([c]4ccccc4-c4cccc[n+]41)([c]1ccccc1-c1cccc[n+]13)[n+]1cc(-c3ccc(C#N)cc3)ccc1-2 [[Ir(ppy)2(MeTzPyPhCN)]^+]
2.090 10^6s^−1

Value lookup for knr; key = C[n+]1nc2[n](n1)[Ir]13([c]4cc(F)cc(F)c4-c4cccc[n+]41)([c]1cc(F)cc(F)c1-c1cccc[n+]13)[n+]1cc(C#N)ccc1-2 [[Ir(F2ppy)2(MeTzPyCN)]^+]
1.601 10^6s^−1

Value lookup for knr; key = c1cc[c]2c(c1)-c1cccc[n+]1[Ir]213([c]2ccccc2-c2cccc[n+]21)[n]1nnnc1-c1c2ccccc2cc[n+]13 [[Ir(ppy)2(TziQn)]]
0.128 10^6s^−1

Value lookup for knr; key = N#Cc1ccc2[n+](c1)[Ir]13([c]4cc(F)cc(F)c4-c4cccc[n+]41)([c]1cc(F)cc(F)c1-c1cccc[n+]13)[n]1nnnc1-2 [[Ir(F2ppy)2(TzPyCN)]]
0.852 10^6s^−1

Value lookup for knr; key = N#Cc1ccc2[n+](c1)[Ir]13([c]4ccccc4-c4cccc[n+]41)([c]1ccccc1-c1cccc[n+]13)[n]1nnnc1-2 [[Ir(ppy)2(TzPyCN)]]
1.140 10^6s^−1
